Field: viability, T/C. Provide a value for each of the molecules that follow.
System: 475296-252-R-J1-PDC spheroid viability;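 further: spheroids exposed to agents for seven days before readout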
Experiment: Anticancer human tumor 475296-252-R-J1-PDC patient-derived rectal carcinoma cell line growth inhibition [PI3K]
Conditions: second compound 1 µM; first compound 0.0316 µM; hits give low values; spheroids with HUVEC and MSC
One number for each entry, in %.

Please look at the items below and tell me viability, T/C for each one, in order.
1. CC(=O)c1c(C)c2cnc(Nc3ccc(N4CCNCC4)cn3)nc2n(C2CCCC2)c1=O + Cc1nc(NC(=O)N2CCCC2C(N)=O)sc1-c1ccnc(C(C)(C)C(F)(F)F)c1
2. CC1(C)CCC(CN2CCN(c3ccc(C(=O)NS(=O)(=O)c4ccc(NCC5CCOCC5)c([N+](=O)[O-])c4)c(Oc4cnc5[nH]ccc5c4)c3)CC2)=C(c2ccc(Cl)cc2)C1 + Cc1nc(NC(=O)N2CCCC2C(N)=O)sc1-c1ccnc(C(C)(C)C(F)(F)F)c1
3. CC(C)NCC(C(=O)N1CCN(c2ncnc3c2C(C)CC3O)CC1)c1ccc(Cl)cc1 (stereo unspecified) + CC(Nc1ccc2c(c1)OCCn1cc(N3C(=O)OCC3C(F)F)nc1-2)C(N)=O
4. CC1(C)CCC(CN2CCN(c3ccc(C(=O)NS(=O)(=O)c4ccc(NCC5CCOCC5)c([N+](=O)[O-])c4)c(Oc4cnc5[nH]ccc5c4)c3)CC2)=C(c2ccc(Cl)cc2)C1 + COc1c(OCCCN2CCOCC2)ccc2c3n(c(=NC(=O)c4cnc(N)nc4)nc12)CCN3
5. CC1(C)CCC(Nc2ncc(C(F)(F)F)c(-c3c[nH]c4c(P(C)(C)=O)c(C#N)ccc34)n2)CN1 (stereo unspecified) + CC(Nc1ncnc2nc[nH]c12)c1cc2cccc(Cl)c2c(=O)n1-c1ccccc1

1: 104; 2: 90.8; 3: 93.5; 4: 63.2; 5: 98.8

Give me viability, T/C for each of these molecules, listed below.
1. CCN1CCN(Cc2ccc(Nc3ncc(F)c(-c4cc(F)c5nc(C)n(C(C)C)c5c4)n3)nc2)CC1 + CC(Nc1ccc2c(c1)OCCn1cc(N3C(=O)OCC3C(F)F)nc1-2)C(N)=O
2. CCN1CCN(Cc2ccc(Nc3ncc(F)c(-c4cc(F)c5nc(C)n(C(C)C)c5c4)n3)nc2)CC1 + COc1c(OCCCN2CCOCC2)ccc2c3n(c(=NC(=O)c4cnc(N)nc4)nc12)CCN3

[80.5, 63.6]

Below are 4 molecules. Give each one its viability, T/C.
1. CCCS(=O)(=O)Nc1ccc(F)c(C(=O)c2c[nH]c3ncc(-c4ccc(Cl)cc4)cc23)c1F + CC(Nc1ccc2c(c1)OCCn1cc(N3C(=O)OCC3C(F)F)nc1-2)C(N)=O
2. CNC(=O)c1ccc(N2C(=S)N(c3ccc(C#N)c(C(F)(F)F)c3)C(=O)C2(C)C)cc1F + COc1c(OCCCN2CCOCC2)ccc2c3n(c(=NC(=O)c4cnc(N)nc4)nc12)CCN3
3. Cn1ncc(Cl)c1-c1cc(C(=O)NC(CN)Cc2cccc(F)c2)sc1Cl (stereo unspecified) + Cc1nc(NC(=O)N2CCCC2C(N)=O)sc1-c1ccnc(C(C)(C)C(F)(F)F)c1
4. CC(C)NCC(C(=O)N1CCN(c2ncnc3c2C(C)CC3O)CC1)c1ccc(Cl)cc1 (stereo unspecified) + CC(Nc1ncnc2nc[nH]c12)c1cc2cccc(Cl)c2c(=O)n1-c1ccccc1

1: 90.7; 2: 72.5; 3: 84.5; 4: 100
